assayText: Metabolic stability in rat liver microsome after 30 mins
Type: ADME, microsomes
assaySetup: liver microsomes, read-out: Stability
Sorting guide: entries reporting remaining at 0.5 h beneath 60% go in the label 1 pile, the rest go in the label 0 pile.

CNc1nccc(-c2[nH]c(C(F)(F)F)nc2-c2cccc(NC(=O)Cc3ccc(Cl)cc3)c2)n1 : label 0
O=C1NCCN1CCNc1nccc(-c2nc(C3CC3)[nH]c2-c2cccc(NS(=O)(=O)Cc3ccc(Cl)c(Cl)c3)c2)n1 : label 1
O=C(Nc1cccc(-c2nc(C3CC3)[nH]c2-c2ccnc(NCCN3CCNC3=O)n2)c1)Nc1ccc(Cl)c(C(F)(F)F)c1 : label 1
NC(=O)c1cccc(Nc2nccc(-c3[nH]c(C(F)(F)F)nc3-c3cccc(NC(=O)Cc4ccc(Cl)cc4)c3)n2)c1 : label 1
CNc1nccc(-c2[nH]c(C3CC3)nc2-c2cccc(NS(=O)(=O)Cc3ccc(Cl)c(Cl)c3)c2)n1 : label 0

Does the reported remaining at 0.5 h of CNc1nccc(-c2[nH]c(C3CC3)nc2-c2cccc(NC(=O)Nc3ccc(Cl)c(C(F)(F)F)c3)c2)n1 stay below 60%?
label 1

Also NC(=O)c1cccc(Nc2nccc(-c3nc(C4CC4)[nH]c3-c3cccc(NS(=O)(=O)Cc4ccc(Cl)c(Cl)c4)c3)n2)c1 , if possible.
label 1

Param item: O=C(Cc1ccc(Cl)cc1)Nc1cccc(-c2nc(C(F)(F)F)[nH]c2-c2ccnc(NCCN3CCNC3=O)n2)c1
label 1

Please give the result for NC(=O)c1cccc(Nc2nccc(-c3[nH]c(C4CC4)nc3-c3cccc(NC(=O)Cc4ccc(Cl)cc4)c3)n2)c1 too.
label 1

###

targetSystem: Serine/threonine-protein kinase B-raf (Homo sapiens, UniProt P15056, V600E)
Sequence (P15056 2-766 V600E limits assumed): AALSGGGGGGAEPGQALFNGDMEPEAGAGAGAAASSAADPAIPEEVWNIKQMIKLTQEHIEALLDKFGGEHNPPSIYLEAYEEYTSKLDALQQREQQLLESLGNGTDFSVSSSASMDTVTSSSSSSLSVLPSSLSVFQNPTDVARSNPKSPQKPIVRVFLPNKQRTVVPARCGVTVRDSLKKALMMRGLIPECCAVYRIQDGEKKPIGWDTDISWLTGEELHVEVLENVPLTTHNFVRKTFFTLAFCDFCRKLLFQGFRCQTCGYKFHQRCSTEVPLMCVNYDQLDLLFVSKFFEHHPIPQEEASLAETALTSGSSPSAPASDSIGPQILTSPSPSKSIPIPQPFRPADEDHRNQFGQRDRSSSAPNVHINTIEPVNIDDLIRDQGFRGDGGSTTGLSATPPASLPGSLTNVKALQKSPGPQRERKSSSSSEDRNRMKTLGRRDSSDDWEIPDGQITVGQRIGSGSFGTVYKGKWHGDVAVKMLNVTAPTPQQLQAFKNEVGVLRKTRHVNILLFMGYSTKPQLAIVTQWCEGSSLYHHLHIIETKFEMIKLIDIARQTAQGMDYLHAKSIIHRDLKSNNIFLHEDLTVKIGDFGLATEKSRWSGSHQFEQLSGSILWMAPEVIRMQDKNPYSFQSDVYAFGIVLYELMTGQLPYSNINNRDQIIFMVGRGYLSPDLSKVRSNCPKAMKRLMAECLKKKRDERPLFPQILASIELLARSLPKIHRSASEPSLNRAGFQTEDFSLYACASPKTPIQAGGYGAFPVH
Exam item: assign criterion met to entries whose IC50 is below 100 nM and criterion not met to entries at or above 100 nM. Note that a value of exactly 100 nM receives criterion not met.

Please review the entries below; each comes with its answer.
O=C(Nc1cccc(-c2nc(C3CC3)[nH]c2-c2ccnc(NCCN3CCNC3=O)n2)c1)Nc1ccc(Cl)c(C(F)(F)F)c1 : criterion met
O=C1NCCN1CCNc1nccc(-c2nc(C3CC3)[nH]c2-c2cccc(NS(=O)(=O)Cc3ccc(Cl)c(Cl)c3)c2)n1 : criterion not met
O=C(Cc1ccc(Cl)cc1)Nc1cccc(-c2nc(C3CC3)[nH]c2-c2ccnc(NCCN3CCNC3=O)n2)c1 : criterion met

Take the compound NC(=O)c1cccc(Nc2nccc(-c3[nH]c(C4CC4)nc3-c3cccc(NC(=O)Nc4ccc(Cl)c(C(F)(F)F)c4)c3)n2)c1 and say whether its IC50 is less than 100 nM.
criterion met

# repeat for NC(=O)c1cccc(Nc2nccc(-c3nc(C4CC4)[nH]c3-c3cccc(NS(=O)(=O)Cc4ccc(Cl)c(Cl)c4)c3)n2)c1
criterion not met

Again, but for CNc1nccc(-c2[nH]c(C3CC3)nc2-c2cccc(NS(=O)(=O)Cc3ccc(Cl)c(Cl)c3)c2)n1
criterion not met

The reported numbers originate from ChEMBL document CHEMBL1145637.
